# System: Mycobacterium tuberculosis
# MEASUREMENT_DESCRIPTION: Antimicrobial activity against Mycobacterium tuberculosis H37Rv in GASTD medium after 10 days by spectrophotometric analysis
# Type: functional, organism-based
# RUN_CONDITIONS: 240 h
With a cut-off of 50 µM, any IC50 strictly below it is called fulfilled; any IC50 meeting it or above is called not fulfilled.

{"SMILES_ENTRY": "Oc1ccc([C@@H]2CC(c3ccccc3O)=NN2)cc1", "DISCRETE_LABEL": "fulfilled"}
{"SMILES_ENTRY": "O=C(c1ccccc1)N1N=C(c2ccccc2O)C[C@H]1c1ccccc1O", "DISCRETE_LABEL": "not fulfilled"}
{"SMILES_ENTRY": "O=S(=O)(c1ccccc1)N1N=C(c2ccccc2O)C[C@H]1c1ccc(O)cc1", "DISCRETE_LABEL": "not fulfilled"}
{"SMILES_ENTRY": "N=C(NO)N1N=C(c2ccccc2O)C[C@H]1c1ccccc1O", "DISCRETE_LABEL": "fulfilled"}
{"SMILES_ENTRY": "Cc1ccc(S(=O)(=O)N2N=C(c3ccccc3O)C[C@H]2c2ccc(O)cc2)cc1", "DISCRETE_LABEL": "not fulfilled"}
{"SMILES_ENTRY": "Cc1ccccc1[C@@H]1CC(c2ccccc2O)=NN1C(N)=S", "DISCRETE_LABEL": "fulfilled"}
{"SMILES_ENTRY": "NC(=S)N1N=C(c2ccccc2O)C[C@H]1c1ccccc1O", "DISCRETE_LABEL": "not fulfilled"}
{"SMILES_ENTRY": "N=C(N)N1N=C(c2ccccc2O)C[C@H]1c1ccc(O)cc1", "DISCRETE_LABEL": "fulfilled"}
{"SMILES_ENTRY": "CSC(=S)N/N=C(\\C)c1ccccc1O", "DISCRETE_LABEL": "fulfilled"}
{"SMILES_ENTRY": "NC(=O)N1N=C(c2ccccc2O)C[C@H]1c1ccccc1O", "DISCRETE_LABEL": "not fulfilled"}
{"SMILES_ENTRY": "CSC(=S)N/N=C/c1ccccc1O", "DISCRETE_LABEL": "fulfilled"}
{"SMILES_ENTRY": "O=C(c1ccncc1)N1N=C(c2ccccc2O)C[C@H]1c1ccccc1O", "DISCRETE_LABEL": "fulfilled"}

* * *

# Tested on: Yersinia pestis
# MEASUREMENT_DESCRIPTION: Antimicrobial activity against Yersinia pestis KIM6-2082.1+ in PMHD medium after 26 hrs by spectrophotometric analysis
# Type: functional, organism-based
pIC50: −log10 of the molar value.
Classify as follows. Reported pIC50 greater than or equal to 5: True. Reported pIC50 below: False.

{"SMILES_ENTRY": "NC(=O)N1N=C(c2ccccc2O)C[C@H]1c1ccc(O)cc1", "DISCRETE_LABEL": "False"}
{"SMILES_ENTRY": "CSC(=S)N/N=C/c1ccccc1O", "DISCRETE_LABEL": "True"}
{"SMILES_ENTRY": "CSC(=S)N/N=C/c1ccc(O)cc1", "DISCRETE_LABEL": "False"}
{"SMILES_ENTRY": "N/C(=N\\O)N/N=C/c1ccccc1O", "DISCRETE_LABEL": "False"}
{"SMILES_ENTRY": "Oc1ccc([C@@H]2CC(c3ccccc3O)=NN2)cc1", "DISCRETE_LABEL": "False"}
{"SMILES_ENTRY": "O=C(NO)N1CCN(C(=S)N/N=C/c2ccccc2O)CC1", "DISCRETE_LABEL": "True"}

* * *

Below, each entry is listed with its recorded pIC50.
# Tested on: Yersinia pestis
# MEASUREMENT_DESCRIPTION: Antimicrobial activity against Yersinia pestis KIM6-2082.1+ in PMHD medium supplemented with 100 uM FeCl3 after 26 hrs by spectrophotometric analysis
# Format: functional, organism-based
pIC50: −log10 of the molar value.

{"SMILES_ENTRY": "N/C(=N\\O)N/N=C/c1ccccc1O", "pIC50": 3.52}
{"SMILES_ENTRY": "O=C(NO)N1N=C(c2ccccc2O)C[C@H]1c1ccc(O)cc1", "pIC50": "< 4.51"}
{"SMILES_ENTRY": "NC(=S)N1N=C(c2ccccc2O)C[C@H]1c1ccccc1O", "pIC50": "< 4.20"}
{"SMILES_ENTRY": "CN[C@@H]1[C@H](O[C@H]2[C@H](O[C@H]3[C@H](O)[C@@H](O)[C@H](N=C(N)N)[C@@H](O)[C@@H]3N=C(N)N)O[C@@H](C)[C@]2(O)C=O)O[C@@H](CO)[C@H](O)[C@H]1O", "pIC50": 6.00}
{"SMILES_ENTRY": "O=C(NO)N/N=C/c1ccccc1O", "pIC50": "< 5.40"}
{"SMILES_ENTRY": "N=C(N)N1N=C(c2ccccc2O)C[C@H]1c1ccccc1O", "pIC50": "< 4.20"}
{"SMILES_ENTRY": "CSC(=S)N/N=C/c1ccc(O)cc1", "pIC50": "< 3.63"}
{"SMILES_ENTRY": "N=C(N)N1N=C(c2ccccc2O)C[C@H]1c1ccc(O)cc1", "pIC50": "< 4.20"}
{"SMILES_ENTRY": "O=C(c1ccncc1)N1N=C(c2ccccc2O)C[C@H]1c1ccc(O)cc1", "pIC50": "< 5.10"}
{"SMILES_ENTRY": "CSC(=S)N/N=C(\\C)c1ccccc1O", "pIC50": 3.81}

* * *

# System: Mycobacterium tuberculosis
# MEASUREMENT_DESCRIPTION: Antimicrobial activity against Mycobacterium tuberculosis H37Rv in GASTD medium supplemented with 100 uM FeCl3 after 10 days by spectrophotometric analysis
# Assay type: functional, organism-based
# RUN_CONDITIONS: 240 h
With a cut-off of 60 µM, any MIC90 strictly below it is called criterion met; any MIC90 meeting it or above is called criterion not met.

{"COMPOUND": "Oc1ccc([C@@H]2CC(c3ccccc3O)=NN2)cc1", "DISCRETE_LABEL": "criterion not met"}
{"COMPOUND": "O=C(c1ccccc1)N1N=C(c2ccccc2O)C[C@H]1c1ccc(O)cc1", "DISCRETE_LABEL": "criterion not met"}
{"COMPOUND": "N/C(=N\\O)N/N=C/c1ccccc1O", "DISCRETE_LABEL": "criterion met"}
{"COMPOUND": "N=C(N)N1N=C(c2ccccc2O)C[C@H]1c1ccc(O)cc1", "DISCRETE_LABEL": "criterion not met"}
{"COMPOUND": "O=C(c1ccncc1)N1N=C(c2ccccc2O)C[C@H]1c1ccccc1O", "DISCRETE_LABEL": "criterion met"}
{"COMPOUND": "NC(=O)N1N=C(c2ccccc2O)C[C@H]1c1ccc(O)cc1", "DISCRETE_LABEL": "criterion not met"}
{"COMPOUND": "Cc1ccccc1[C@@H]1CC(c2ccccc2O)=NN1C(N)=S", "DISCRETE_LABEL": "criterion met"}
{"COMPOUND": "CSC(=S)N/N=C/c1ccccc1O", "DISCRETE_LABEL": "criterion met"}
{"COMPOUND": "N=C(N)N1N=C(c2ccccc2O)C[C@H]1c1ccccc1O", "DISCRETE_LABEL": "criterion not met"}
{"COMPOUND": "C/C(=N\\NC(=O)NO)c1ccc(O)cc1", "DISCRETE_LABEL": "criterion not met"}
{"COMPOUND": "O=C(c1ccccc1)N1N=C(c2ccccc2O)C[C@H]1c1ccccc1O", "DISCRETE_LABEL": "criterion not met"}
{"COMPOUND": "N=C(NO)N1N=C(c2ccccc2O)C[C@H]1c1ccc(O)cc1", "DISCRETE_LABEL": "criterion met"}
{"COMPOUND": "N=C(NO)N1N=C(c2ccccc2O)C[C@H]1c1ccccc1O", "DISCRETE_LABEL": "criterion not met"}
{"COMPOUND": "N=C(NO)N/N=C/c1ccc(O)cc1", "DISCRETE_LABEL": "criterion not met"}
{"COMPOUND": "NNC(=O)c1ccncc1 [ISONIAZID]", "DISCRETE_LABEL": "criterion met"}

* * *

# System: Mycobacterium tuberculosis
# MEASUREMENT_DESCRIPTION: Antimicrobial activity against Mycobacterium tuberculosis H37Rv in GASTD medium after 10 days by spectrophotometric analysis
# Format: functional, organism-based
# RUN_CONDITIONS: 240 h

{"SMILES_ENTRY": "N=C(NO)N1N=C(c2ccccc2O)C[C@H]1c1ccc(O)cc1", "BOUND_OPERATOR": "=", "IC50 [µM]": 47}
{"SMILES_ENTRY": "O=C(c1ccncc1)N1N=C(c2ccccc2O)C[C@H]1c1ccc(O)cc1", "BOUND_OPERATOR": ">", "IC50 [µM]": 8}
{"SMILES_ENTRY": "Oc1ccccc1C1=NN[C@H](c2ccccc2O)C1", "BOUND_OPERATOR": "=", "IC50 [µM]": 25}
{"SMILES_ENTRY": "N=C(N)N1N=C(c2ccccc2O)C[C@H]1c1ccccc1O", "BOUND_OPERATOR": "=", "IC50 [µM]": 44}
{"SMILES_ENTRY": "O=C(NO)N1N=C(c2ccccc2O)C[C@H]1c1ccccc1O", "BOUND_OPERATOR": "=", "IC50 [µM]": 54}
{"SMILES_ENTRY": "N/C(=N\\O)N/N=C/c1ccccc1O", "BOUND_OPERATOR": "=", "IC50 [µM]": 11}
{"SMILES_ENTRY": "O=C(NO)N1CCN(C(=S)N/N=C/c2ccccc2O)CC1", "BOUND_OPERATOR": "=", "IC50 [µM]": 20}
{"SMILES_ENTRY": "CC(=O)N1N=C(c2ccccc2O)C[C@H]1c1ccc(O)cc1", "BOUND_OPERATOR": ">", "IC50 [µM]": 8}
{"SMILES_ENTRY": "O=S(=O)(c1ccccc1)N1N=C(c2ccccc2O)C[C@H]1c1ccccc1O", "BOUND_OPERATOR": ">", "IC50 [µM]": 63}
{"SMILES_ENTRY": "N=C(NO)N/N=C/c1ccc(O)cc1", "BOUND_OPERATOR": "=", "IC50 [µM]": 43}
{"SMILES_ENTRY": "O=C(NO)N1N=C(c2ccccc2O)C[C@H]1c1ccc(O)cc1", "BOUND_OPERATOR": "=", "IC50 [µM]": 42}
{"SMILES_ENTRY": "Cc1ccc(S(=O)(=O)N2N=C(c3ccccc3O)C[C@H]2c2ccccc2O)cc1", "BOUND_OPERATOR": ">", "IC50 [µM]": 63}
